Parameter: IC50. Scope: all listed entries.
biological target: recombinant human NMDA receptors constructed from NR1 and NR2B sub-units (Homo sapiens, UniProt Q05586+Q13224); construct: expressed in transfected cells; host or cells: Xenopus laevis oocytes injected with cRNA transcribed from pGEMHE constructs; test: Inhibition of NMDA current in Xenopus ovocytes, two electrode voltage clamp; assay type: cell-based
Sequence (Q13224 27-1484, other chains not shown): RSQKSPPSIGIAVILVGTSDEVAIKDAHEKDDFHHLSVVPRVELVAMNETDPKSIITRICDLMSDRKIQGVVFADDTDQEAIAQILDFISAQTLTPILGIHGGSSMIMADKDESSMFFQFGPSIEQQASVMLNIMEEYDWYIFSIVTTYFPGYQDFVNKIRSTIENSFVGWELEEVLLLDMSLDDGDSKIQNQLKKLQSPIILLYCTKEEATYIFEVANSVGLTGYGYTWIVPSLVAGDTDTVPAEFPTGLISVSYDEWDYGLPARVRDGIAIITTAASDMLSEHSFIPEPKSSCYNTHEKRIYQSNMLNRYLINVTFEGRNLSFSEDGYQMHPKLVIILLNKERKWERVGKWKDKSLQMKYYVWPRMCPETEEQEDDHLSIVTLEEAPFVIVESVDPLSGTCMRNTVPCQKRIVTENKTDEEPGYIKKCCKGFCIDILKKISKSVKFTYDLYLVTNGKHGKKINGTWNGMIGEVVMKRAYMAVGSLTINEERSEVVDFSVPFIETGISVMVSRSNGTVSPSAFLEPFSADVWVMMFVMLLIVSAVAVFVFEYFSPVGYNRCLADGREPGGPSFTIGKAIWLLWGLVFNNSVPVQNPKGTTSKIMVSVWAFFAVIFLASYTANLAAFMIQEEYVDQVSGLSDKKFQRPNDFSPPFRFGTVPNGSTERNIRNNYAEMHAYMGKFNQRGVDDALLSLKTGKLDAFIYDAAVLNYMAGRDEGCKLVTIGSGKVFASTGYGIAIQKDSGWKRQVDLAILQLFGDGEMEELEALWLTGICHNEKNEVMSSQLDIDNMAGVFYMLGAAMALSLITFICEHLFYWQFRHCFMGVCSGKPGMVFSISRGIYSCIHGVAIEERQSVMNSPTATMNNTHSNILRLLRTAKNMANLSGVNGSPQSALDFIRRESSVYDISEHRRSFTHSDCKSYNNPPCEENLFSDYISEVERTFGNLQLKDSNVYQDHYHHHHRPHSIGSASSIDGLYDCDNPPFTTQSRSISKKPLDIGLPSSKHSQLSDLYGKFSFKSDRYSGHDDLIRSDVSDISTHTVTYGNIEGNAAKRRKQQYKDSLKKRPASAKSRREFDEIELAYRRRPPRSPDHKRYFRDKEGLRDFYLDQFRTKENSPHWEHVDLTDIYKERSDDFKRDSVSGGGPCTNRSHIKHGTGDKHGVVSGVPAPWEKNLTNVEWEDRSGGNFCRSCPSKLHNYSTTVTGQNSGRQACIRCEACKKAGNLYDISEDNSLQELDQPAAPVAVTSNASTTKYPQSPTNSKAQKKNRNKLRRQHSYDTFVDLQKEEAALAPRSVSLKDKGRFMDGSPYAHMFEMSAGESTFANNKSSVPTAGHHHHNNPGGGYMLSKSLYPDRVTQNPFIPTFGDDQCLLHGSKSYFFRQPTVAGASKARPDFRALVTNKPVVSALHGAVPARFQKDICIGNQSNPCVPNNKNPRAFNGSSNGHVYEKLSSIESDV
Expressed in nM, but write only the number.

>  <compound>
CCN(CC)C(=O)[C@]1(c2cccc(Cl)c2)C[C@@H](N)C1 [Compound 1e]

>  <property label>
IC50

>  <assay value>
79.4

$$$$

Just so you know, measured IC50 for CNC1(c2ccccc2Cl)CCCCC1=O (centres unmarked) [ketamine, reference compound] came out at 794

----------
biological target: recombinant human NMDA receptors constructed from NR1 and NR2B sub-units (Homo sapiens, UniProt Q05586+Q13224); construct: expressed in transfected cells; host or cells: Xenopus laevis oocytes injected with cRNA transcribed from pGEMHE constructs; assay: Inhibition of NMDA current in Xenopus ovocytes, two electrode voltage clamp; format: cell-based; details: ovocytes expressing human NR1/NR2B; glutamate and glycine each 10 μM; read-out: Inhibition of NMDA current pIC50 (converted)
property label: IC50
Dear colleague, please send the value followed by its unit.

>  <molecule>
CCN(CC)C(=O)[C@]1(c2ccccc2)C[C@@H](N)C1 [Compound 1a1]

>  <IC50>
501 nM

$$$$
>  <molecule>
CCN(CC)C(=O)[C@]1(c2ccccc2F)C[C@@H](N)C1 [Compound 1b]

>  <IC50>
501 nM

$$$$
>  <molecule>
CCN(CC)C(=O)[C@]1(c2cccc(OC)c2)C[C@@H](N)C1 [Compound 1d]

>  <IC50>
398 nM

$$$$

Turning to the following molecule.
IC50 reading for CCN(CC)C(=O)[C@]1(c2cccc(F)c2)C[C@@H](N)C1 [Compound 1c] : 158 nM
